assay: Incubations with minipig hepatic S9; conditions: minipig hepatic S9; method B (eq. 5); values > 1 assumed equal to 1
Quantity kind: Fm,AO Method B (fraction metabolized by AO)

Examples with answers:
# lookup: Fm,AO Method B (fraction metabolized by AO) of CCN(C(C)=O)c1cccc(-c2ccnc3c(C#N)cnn23)c1 [Zaleplon, zaleplon] 0

Then this compound: N=C(N)NC(=O)c1cnn(-c2cccc3ncccc23)c1C1CC1 [Zoniporide] 0.97

Then this compound: CN1CCC(Nc2ncc3ncnc(Nc4ccc(F)c(Cl)c4)c3n2)CC1 [BIBX1382] 0.96

***
# lookup: Fm,AO Method B (fraction metabolized by AO) of Cn1cc(-c2ccc3nnc(Sc4ccc5ncccc5c4)n3n2)cn1 [SGX523] 0.12

###

assay: Incubations with human hepatic S9; details: human hepatic S9; method B (eq. 5); values > 1 assumed equal to 1
Listing: Fm,AO Method B (fraction metabolized by AO) of selected compounds
// return a plain number; no unit text

Examples with answers:
# lookup: Fm,AO Method B (fraction metabolized by AO) of "CCN(C(C)=O)c1cccc(-c2ccnc3c(C#N)cnn23)c1" 0.71

Then this compound: "Cn1cc(-c2ccc3nnc(Sc4ccc5ncccc5c4)n3n2)cn1" 0.61

Then this compound: "CN1CCC(Nc2ncc3ncnc(Nc4ccc(F)c(Cl)c4)c3n2)CC1" 0.92

Kindly review the next compound as well.
# lookup: Fm,AO Method B (fraction metabolized by AO) of N=C(N)NC(=O)c1cnn(-c2cccc3ncccc23)c1C1CC1 [Zoniporide] 0.72

###

Listing: Fm,AO Method B (fraction metabolized by AO) of selected molecules
test: Incubations with guinea pig hepatic S9; conditions: guinea pig hepatic S9; method B (eq. 5); values > 1 assumed equal to 1

# lookup: Fm,AO Method B (fraction metabolized by AO) of N=C(N)NC(=O)c1cnn(-c2cccc3ncccc23)c1C1CC1 [Zoniporide] 0.97

***
# lookup: Fm,AO Method B (fraction metabolized by AO) of "CCN(C(C)=O)c1cccc(-c2ccnc3c(C#N)cnn23)c1" 0.50

Then this molecule: "CN1CCC(Nc2ncc3ncnc(Nc4ccc(F)c(Cl)c4)c3n2)CC1" 0.73

Then this molecule: "Cn1cc(-c2ccc3nnc(Sc4ccc5ncccc5c4)n3n2)cn1" 0.03

###

assay: in vitro; conditions: male, Hartley, guinea pig, s9, pH 7.4, CLint +NADPH +Hyd
Quantity kind: CLint scaled at 1 μM (mL/min/kg)
Number only, in mL/min/kg; omit the unit.

# lookup: CLint scaled at 1 μM of Nc1nc(OCc2ccccc2)c2[nH]cnc2n1 [O^6-benzylguanine] 15

###

test: Incubations with rat hepatic S9; conditions: rat; well-stirred model from S9 CLint (+NADPH), uncorrected for fraction unbound
Listing: CLHEP (hepatic clearance) of selected molecules
Number only, in mL/min/kg; omit the unit.

Examples with answers:
# lookup: CLHEP (hepatic clearance) of N=C(N)NC(=O)c1cnn(-c2cccc3ncccc23)c1C1CC1 [Zoniporide] 60.8

Then this molecule: CN1CCC(Nc2ncc3ncnc(Nc4ccc(F)c(Cl)c4)c3n2)CC1 [BIBX1382] 21.3

Then this molecule: Cn1cc(-c2ccc3nnc(Sc4ccc5ncccc5c4)n3n2)cn1 [SGX523] 23.3

***
# lookup: CLHEP (hepatic clearance) of CCN(C(C)=O)c1cccc(-c2ccnc3c(C#N)cnn23)c1 [Zaleplon, zaleplon] 12.7
